Target: T1, human IL-11 (AAH12506.1, Pro22-Leu199) (human, UniProt P20809 22-199)
T1 construct: The range Pro22-Leu199 counts on AAH12506.1; The Octet runs say only 'human IL-11'; also called hIL-11
T1 chain: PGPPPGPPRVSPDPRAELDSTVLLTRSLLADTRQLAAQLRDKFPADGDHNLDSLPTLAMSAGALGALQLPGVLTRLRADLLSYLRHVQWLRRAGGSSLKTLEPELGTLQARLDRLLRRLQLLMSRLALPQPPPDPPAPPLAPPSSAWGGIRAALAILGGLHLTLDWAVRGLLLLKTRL
Test: BLI (Octet), antibody captured, human IL-11 in solution
attribute_measured: kon (M⁻¹ s⁻¹)
Give the value in M⁻¹ s⁻¹ but do not write M⁻¹ s⁻¹ after it.

binder: hz18A10-VH + hz18A10-VLm17 (antibody, V domains shown, Constant regions not restated for this antibody) VH: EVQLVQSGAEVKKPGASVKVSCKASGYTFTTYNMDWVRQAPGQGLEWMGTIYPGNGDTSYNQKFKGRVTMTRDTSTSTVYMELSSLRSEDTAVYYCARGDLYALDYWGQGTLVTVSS VL: DIQMTQSPSSLSASVGDRVTITCKASQSVYRDVAWYQQKPGKAPKLLIYRASNRYTGVPSRFSGSGSGTDFTFTISSLQPEDIATYYCQHDYSSPYTFGQGTKLEIK
attribute_measured: kon
measurement_unit: M⁻¹ s⁻¹
test_value: 725000

According to the records, this binder hz18A10-VH + hz18A10-VLm5 (antibody, V domains shown, Constant regions not restated for this antibody) VH: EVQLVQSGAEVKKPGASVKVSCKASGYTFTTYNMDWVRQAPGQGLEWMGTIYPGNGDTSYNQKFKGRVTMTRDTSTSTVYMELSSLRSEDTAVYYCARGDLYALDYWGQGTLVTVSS VL: DIQMTQSPSSLSASVGDRVTITCKASQSVSNDIAWYQQKPGKAPKLLIYSASNRYTGVPSRFSGSGSGTDFTFTISSLQPEDIATYYCQHDYSSPYTFGQGTKLEIK displays kon of 688000

hz18A10-VH + hz18A10-VLm1 (antibody, V domains shown, Constant regions not restated for this antibody) VH: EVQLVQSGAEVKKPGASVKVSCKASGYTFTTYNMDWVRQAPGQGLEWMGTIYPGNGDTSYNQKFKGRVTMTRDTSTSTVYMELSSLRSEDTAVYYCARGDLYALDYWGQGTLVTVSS VL: DIQMTQSPSSLSASVGDRVTITCKASKSVSNDVAWYQQKPGKAPKLLIYSASNRYTGVPSRFSGSGSGTDFTFTISSLQPEDIATYYCQHDYSSPYTFGQGTKLEIK yielded kon of 718000

Query hz18A10-VH + hz18A10-VLm12 (antibody, V domains shown, Constant regions not restated for this antibody) VH: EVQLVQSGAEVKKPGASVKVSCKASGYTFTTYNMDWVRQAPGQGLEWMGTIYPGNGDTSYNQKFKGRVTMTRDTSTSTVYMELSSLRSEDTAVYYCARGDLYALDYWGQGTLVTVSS VL: DIQMTQSPSSLSASVGDRVTITCKASQSVSNDVAWYQQKPGKAPKLLIYSASSRYTGVPSRFSGSGSGTDFTFTISSLQPEDIATYYCQHDYSSPYTFGQGTKLEIK yields kon of 750000

The binder listed as hz18A10-VHm2 + hz18A10-VLm11 (antibody, V domains shown, Constant regions not restated for this antibody) VH: EVQLVQSGAEVKKPGASVKVSCKASGYTFTTYNMDWVRQAPGQGLEWMGTIYPGNGDTSYNQKFKGRVTMTRDTSTSTVYMELSSLRSEDTAVYYCARGDLHYLDYWGQGTLVTVSS VL: DIQMTQSPSSLSASVGDRVTITCKASQSVSNDVAWYQQKPGKAPKLLIYRASNRYTGVPSRFSGSGSGTDFTFTISSLQPEDIATYYCQHDYSSPYTFGQGTKLEIK has a reported kon of 314000

hz18A10-VHm10 + hz18A10-VLm19 (antibody, V domains shown, Constant regions not restated for this antibody) VH: EVQLVQSGAEVKKPGASVKVSCKASGYTFNHYNMDWVRQAPGQGLEWMGTIYPGNGDTSYNQKFKGRVTMTRDTSTSTVYMELSSLRSEDTAVYYCARGDLYALDYWGQGTLVTVSS VL: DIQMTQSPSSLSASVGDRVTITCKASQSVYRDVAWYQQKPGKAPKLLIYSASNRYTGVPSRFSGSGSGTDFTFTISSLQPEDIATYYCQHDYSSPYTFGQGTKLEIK yielded kon of 917000

Entry under test: hz18A10-VH + hz18A10-VLm11 (antibody, V domains shown, Constant regions not restated for this antibody) VH: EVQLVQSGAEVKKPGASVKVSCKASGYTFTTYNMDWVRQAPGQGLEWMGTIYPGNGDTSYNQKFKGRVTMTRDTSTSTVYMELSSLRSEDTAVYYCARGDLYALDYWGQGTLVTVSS VL: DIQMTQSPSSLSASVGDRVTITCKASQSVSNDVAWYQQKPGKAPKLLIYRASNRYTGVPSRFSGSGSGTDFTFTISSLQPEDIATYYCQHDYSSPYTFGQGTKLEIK . Its kon was 747000

Lookup result for hz18A10-VH + hz18A10-VLm9 (antibody, V domains shown, Constant regions not restated for this antibody) VH: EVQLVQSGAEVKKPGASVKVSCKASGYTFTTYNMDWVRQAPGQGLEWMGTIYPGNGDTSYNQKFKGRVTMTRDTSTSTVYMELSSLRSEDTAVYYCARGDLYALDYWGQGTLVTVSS VL: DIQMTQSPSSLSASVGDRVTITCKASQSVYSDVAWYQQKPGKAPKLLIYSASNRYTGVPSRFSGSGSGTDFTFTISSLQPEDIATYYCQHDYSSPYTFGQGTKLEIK ; measured kon: 859000

Record summary for hz18A10-VH + hz18A10-VLm8 (antibody, V domains shown, Constant regions not restated for this antibody) VH: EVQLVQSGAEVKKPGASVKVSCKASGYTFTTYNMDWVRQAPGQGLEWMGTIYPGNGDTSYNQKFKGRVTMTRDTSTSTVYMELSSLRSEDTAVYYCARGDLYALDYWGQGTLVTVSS VL: DIQMTQSPSSLSASVGDRVTITCKASQSVYHDVAWYQQKPGKAPKLLIYSASNRYTGVPSRFSGSGSGTDFTFTISSLQPEDIATYYCQHDYSSPYTFGQGTKLEIK : reported kon = 929000

Per the record, hz18A10-VH + hz18A10-VLm2 (antibody, V domains shown, Constant regions not restated for this antibody) VH: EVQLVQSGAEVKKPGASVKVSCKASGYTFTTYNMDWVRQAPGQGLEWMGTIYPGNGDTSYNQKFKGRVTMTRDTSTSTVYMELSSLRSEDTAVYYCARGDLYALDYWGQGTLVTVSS VL: DIQMTQSPSSLSASVGDRVTITCKASYSVSNDVAWYQQKPGKAPKLLIYSASNRYTGVPSRFSGSGSGTDFTFTISSLQPEDIATYYCQHDYSSPYTFGQGTKLEIK has kon of 806000
